target-desc: T1, human cholecystokinin-2 receptor (human, UniProt P32239 1-447)
T1 sequence (looked up): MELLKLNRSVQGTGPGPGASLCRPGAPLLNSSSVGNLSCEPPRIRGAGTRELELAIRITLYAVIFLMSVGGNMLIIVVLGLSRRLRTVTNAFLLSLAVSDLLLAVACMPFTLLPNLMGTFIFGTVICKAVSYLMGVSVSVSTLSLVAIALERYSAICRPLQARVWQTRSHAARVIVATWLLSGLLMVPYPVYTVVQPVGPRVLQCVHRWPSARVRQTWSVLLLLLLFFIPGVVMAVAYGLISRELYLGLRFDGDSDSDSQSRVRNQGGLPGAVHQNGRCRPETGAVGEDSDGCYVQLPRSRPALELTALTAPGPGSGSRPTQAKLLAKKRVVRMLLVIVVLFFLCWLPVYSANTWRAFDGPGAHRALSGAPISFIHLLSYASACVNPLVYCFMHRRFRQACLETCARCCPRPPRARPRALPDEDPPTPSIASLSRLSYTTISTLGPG
measurement-notes: cell-based or functional assay
Starred links: 1 amine or outer side, 2 acyl side, 3 side chain; linkers in the order of their positions; H or OH if unused. Non-standard residues stand in square brackets, D forms with d. *: point of attachment. sY = N[C@@H](Cc1ccc(OS(=O)(=O)O)cc1)C(=O)O; C18 diacid = O=C(O)CCCCCCCCCCCCCCCCC(=O)*; γGlu = O=C(O)[C@H](CCC(=O)[*:2])N[*:1]; NMeF = CN[C@@H](Cc1ccccc1)C(=O)O; dNMeD = CN[C@H](CC(=O)O)C(=O)O; Nle = CCCC[C@H](N)C(=O)O; AEEA = NCCOCCOCC(=O)O
metric: EC50 (CCK-2R) (nM)
The reply should contain only the number, in nM.

QUERY: Looking for the measured EC50 (CCK-2R) of {C18 diacid-γGlu-AEEA-AEEA}-D[sY]SGW[Nle][dNMeD][NMeF]-NH2 (SMILES CCCC[C@H](NC(=O)[C@H](Cc1c[nH]c2ccccc12)NC(=O)CNC(=O)[C@H](CO)NC(=O)[C@H](Cc1ccc(OS(=O)(=O)O)cc1)NC(=O)[C@H](CC(=O)O)NC(=O)COCCOCCNC(=O)COCCOCCNC(=O)CC[C@H](NC(=O)CCCCCCCCCCCCCCCCC(=O)O)C(=O)O)C(=O)N(C)[C@H](CC(=O)O)C(=O)N(C)[C@@H](Cc1ccccc1)C(N)=O, X = Nle or Nal) , can you help?
RESULT: 940
